Species on record: Homo sapiens
Experiment: Selectivity ratio of IC50 for recombinant C-terminal His10-tagged human uPA (M1 to L431 residues) to IC50 for recombinant C-terminal His10-tagged human Hepsin (R45 to […] residues) D161E/ R162K double mutant by automated fluorescence assay
Reported Metric: Ratio IC50

Consider the reported Ratio IC50 for these compounds:
INSERT INTO assay_data (compound, result) VALUES
  ('Cc1ccc(S(=O)(=O)N2CCCC2C(=O)Nc2ccc(C(=N)N)cc2)cc1 (stereo not given)', '3 to 9'),
  ('Cc1ccc(S(=O)(=O)NC(CC(C)C)C(=O)Nc2ccc(C(=N)N)cc2)cc1 (stereo not given)', '12 to 33'),
  ('Cc1ccc(S(=O)(=O)NC(C(=O)Nc2ccc(C(=N)N)cc2)C2CCOCC2)cc1 (stereo not given)', '> 13'),
  ('Cc1ccc(S(=O)(=O)N(C)C(CC(C)C)C(=O)Nc2ccc(C(=N)N)cc2)cc1 (stereo not given)', '< 1');

In: Note Ratio IC50 for the compound shown: CCCCC(NS(=O)(=O)c1ccc(C)cc1)C(=O)Nc1ccc(C(=N)N)cc1 (stereo not given)
Out: 3 to 10
